Listing: growth of selected molecules
System: OVCAR-8 ovarian
PROTOCOL_DETAILS: NCI-60 one-dose screen, 48 h (100 = growth as untreated, 0 = no growth, -100 = all killed)
EXPERIMENTAL_PARAMETERS: 10 µM unless noted
The panel holds about 83,000 compounds, 20% with a hit somewhere; the sample as a whole holds those more often.
Response body: numeric value in %, unit text excluded.

O=C1/C(=C/c2ccccc2O)CC/C1=C\c1ccccc1O; 68.9
N#Cc1ccc2c(c1)C(=O)c1c-2n(CCCN)c(=O)c2cc([N+](=O)[O-])ccc12; -71.6
COc1ccc(-c2noc(C(=O)O)c2-c2cc(OC)c(OC)c(OC)c2)cc1; 30.4
CN1C(=O)/C(=C\c2c(Cl)cccc2Cl)c2ccccc21; 94.1

# context switch: different molecule, same growth
### Prompt Recall the recorded growth for "Cc1cc(C(=O)Nc2ncc(Cc3cccc(C(F)(F)F)c3)s2)c2ccccc2n1" with OVCAR-8 ovarian and state it.
### Response 43.4

* * *

System: EKVX NSCLC
PROTOCOL_DETAILS: NCI-60 one-dose screen, 48 h
EXPERIMENTAL_PARAMETERS: 10 µM unless noted
Compounds without any hit were thinned out: in the full panel of roughly 83,000, 20% have a hit. Active and inactive are the calls of the source. Rule for the calls: active = growth percent below 10; inactive = the rest.
Give one outcome, nothing more. List: active, inactive

Examples from the recorded data:
CCCNc1nc2ccccc2c2c1S(=O)(=O)c1ccc(Cl)cc1C2=O; inactive
COc1ccc(C/C(C)=C(/c2ccc(OCCN(C)C)cc2)c2ccc(OC(=O)NCc3ccccc3)cc2)cc1; inactive
CCOC(=O)c1ccc(NC(=O)c2nc(-c3cc(OC)c(OC)c(OC)c3)n(-c3ccc(Cl)cc3)n2)cc1; inactive
Cc1cc(S(=O)(=O)/N=C(\N)n2nc(C)c(C)c2C)c(SCc2ccccc2)cc1Cl; inactive
O=C(Nc1nc2ccc(C(=O)N3CCN(/C=C/c4ccccc4)CC3)cc2s1)c1ccc(NCCc2ccccc2)c([N+](=O)[O-])c1; inactive
COc1ccc(-c2cc(-c3ccc(Cl)cc3)c(C#N)c(=O)n2Cc2ccc(C(=O)Nc3ccccc3N)cc2)cc1; inactive
Cc1ccc(C[P+](c2ccccc2)(c2ccccc2)c2ccccc2)cc1; active
N#Cc1c(-c2ccc(Cl)cc2)c(C#N)c2c(C#N)c(N)nn2c1N; inactive
COc1cc2c(cc1OCCCN1CCN(CCCOc3cc4c(cc3OC)C(=O)N3CC(F)(F)C[C@H]3C=N4)CC1)N=C[C@@H]1CC(F)(F)CN1C2=O; inactive
O=C(O)c1cn(C2CC2)c2cc(N3CCN(Cc4ccc5ccccc5c4O)CC3)c(F)cc2c1=O; inactive

### Prompt Recorded call for "NC(=O)CSc1oc(-c2ccccc2)nc1S(=O)(=O)c1ccc(Br)cc1" ?
### Response inactive

### Prompt Name the outcome recorded for "CN(C)S(=O)(=O)c1cccc(C(=O)Nc2nc(-c3ccc(F)c(F)c3)cs2)c1" in the assay.
### Response inactive

### Prompt For "COc1ccccc1NC(=O)N=Nc1c(O)[nH]c2ccccc12" , what call appears in the results of this test?
### Response inactive

### Prompt Recorded test outcome, item "CN(C)c1ccc(-c2c(C#N)c(N)nn2C(=O)c2ccc(NC(=O)c3ccccn3)cc2)cc1"
### Response inactive

### Prompt Hi team, can someone confirm the assay call for O=C(NCc1ccc(Cl)cc1Cl)C1CCC(=O)N1c1cccs1 (stereo not drawn) ?
### Response inactive

* * *

System: HOP-62 NSCLC
PROTOCOL_DETAILS: NCI-60 one-dose screen, 48 h
EXPERIMENTAL_PARAMETERS: 10 µM unless noted
The panel holds about 83,000 compounds, 20% with a hit somewhere; the sample as a whole holds those more often. Calls of active or inactive are those of the source. Rule for the calls: active = growth percent below 10; inactive = the rest.
Respond using exactly one of the listed classes: T = active, F = inactive

CC(C)COc1nc2c(c(=O)n(C)c(=O)n2C)n1C; F
COc1c(B(O)O)cccc1-c1nc2c(F)cc3[nH]ncc3c2c2c1CCCC2; T
N#C/C(=C\c1c(-c2ccccc2)[nH]c2ccccc12)C(N)=O; F
COC(=O)/C=C1/SC(=Nc2cccc(OC)c2)N(CCc2c[nH]c3ccc(O)cc23)C1=O; F

### Prompt Assay outcome for "O=C(Nc1cccc(-c2ccc(N3CCOCC3)nn2)c1)Nc1cccc(C(F)(F)F)c1" : what was it?
### Response F

* * *

Test system: 786-0 renal
PROTOCOL_DETAILS: NCI-60 one-dose screen, 48 h (100 = growth as untreated, 0 = no growth, -100 = all killed)
EXPERIMENTAL_PARAMETERS: 10 µM unless noted
About 83,000 compounds went through this panel and 20% of them were active in at least one assay; those are over-represented in the sample as a whole.
ASSAY_ENDPOINT: growth (%)
# number only, unit % dropped from output

COc1ccc(C(C)=O)cc1S(=O)(=O)Nc1c(N)nc(SC)[nH]c1=O; 102

### Prompt Entry under review: "O=C(C[C@]1(O)C(=O)Nc2ccccc21)c1cccc(C(F)(F)F)c1" . Reported growth?
### Response 95.7

### Prompt I'd like to know its growth. The molecule in question is "CC(C)c1ccc(-n2c(=S)[nH]c3sc4cc(O)ccc4c3c2=O)cc1"
### Response 103

### Prompt Requested field: growth. Item: "CCc1ccc(CCCC(=O)O)cc1"
### Response 95.4

### Prompt Please report the recorded growth for "COC12C=C/C(=C(/C(=O)OCc3ccncn3)C(=O)CCCCCCCCC3(OC)C=C/C(=C(/C(=O)OCc4ccncn4)C(=O)CCCCCCCC1)O3)O2" .
### Response -71.2

### Prompt growth lookup needed for COc1cc2c(c(OC)c1OC)CCC(c1cccc(C(=O)Nc3cccc(Cl)c3)c1)O2 (centres undefined) , thanks.
### Response 79.8

### Prompt // growth lookup, key: "O=C(CSc1nc2sc3c(c2c(=O)n1-c1ccccc1)CCCCC3)N/N=C/c1cccc([N+](=O)[O-])c1"
### Response 80.7

### Prompt // growth lookup, key: "COc1cccc(/C=C2\COc3ccc(O)c(O)c3C2=O)c1"
### Response -38.1

### Prompt What value of growth has been reported for the following molecule? COc1cc(C2c3cc(OC(C)=O)c(OC)cc3CC3C(=O)OCC32)ccc1OC(C)=O (centres undefined)
### Response 96.4

* * *

Tested on: DU-145 prostate
PROTOCOL_DETAILS: NCI-60 one-dose screen, 48 h (100 = growth as untreated, 0 = no growth, -100 = all killed)
EXPERIMENTAL_PARAMETERS: 10 µM unless noted
Method: Cells are grown in 96 well plates and exposed to the test compound for 48 hours. Compounds are tested at a single concentration, which is 10^-5 M for most compounds. The reported endpoint is percent growth (GI% or GIPRCNT), where numbers from 0 - 100% represent growth inhibition, and numbers from -100% - 0 represent cell death. For example, a value of 40 represents 60% growth inhibition. A value of 0 means no net growth occurred over the course of the experiment. […]
This is part of a sample that, as a whole, favours compounds with a hit. Of some 83,000 tested, about 20% had one in any assay.
Lab note: anything with growth below 80% is marked class 1; values at 80% or higher are marked class 0.

O=C(Nc1nc2ccccc2s1)c1ccc(F)cc1; class 0
O=C(Nc1ccc(Oc2cccc(F)c2)c(Cl)c1)c1cccnc1; class 1
CCOC(=O)c1c(NC(=O)c2cccc(C(F)(F)F)c2)sc2c(CN(C)C)c(O)ccc12; class 1

### Prompt In the record for "CCN(C)S(=O)(=O)Nc1cccc(Nc2ncnc3cc(NC(=O)CCl)ccc23)c1Cl" , is growth less than 80%?
### Response class 1

### Prompt Is 80% strictly greater than the molecule's reported growth? molecule: "N#Cc1c(-c2ccccc2)cc(-c2ccc(Nc3nc(Nc4ccc(Cl)cc4)nc(Nc4ccc(Cl)cc4)n3)cc2)nc1N"
### Response class 1

### Prompt Is it true that growth reported for "O=C(Nc1cccc2ccccc12)NC1CC1" is less than 80%?
### Response class 0

* * *

Tested on: HCC-2998 colon
PROTOCOL_DETAILS: NCI-60 one-dose screen, 48 h (100 = growth as untreated, 0 = no growth, -100 = all killed)
EXPERIMENTAL_PARAMETERS: 10 µM unless noted
This is part of a sample that, as a whole, favours compounds with a hit. Of some 83,000 tested, about 20% had one in any assay.
// reported growth for each item listed
Quick note: give the figure in %, leave out the unit.

### Prompt I am curious: what growth value has been reported for "Cc1cc(=O)oc2cc(OCc3nn4c(Nc5nc6ccccc6s5)c(-c5ccccc5)nc4s3)ccc12" ?
### Response 98.5

* * *

System: RXF 393 renal
PROTOCOL_DETAILS: NCI-60 one-dose screen, 48 h (100 = growth as untreated, 0 = no growth, -100 = all killed)
EXPERIMENTAL_PARAMETERS: 10 µM unless noted
Compounds without any hit were thinned out: in the full panel of roughly 83,000, 20% have a hit.
Where growth equals or exceeds 70%, the correct label is T; where it does not, the label is F.

Look over these answered cases.
COc1cccc(CNc2ccc3ncnc(Nc4ccc(F)c(Cl)c4)c3c2)c1; F
Cc1nc2sc(C(=O)Nc3cccc4ccccc34)c(N)c2cc1C(O)c1ccccc1 (stereo not given); F
N#Cc1c(-c2ccccc2)[nH]c2ncc(-c3ccccc3)n2c1=O; T
CSc1nc2ccccc2cc1/C=[N+](\[O-])c1ccccc1; T
CCCCNC(=O)CC1=C(C)/C(=C/c2[nH]c(-c3ccc[nH]3)cc2OC)N=C1C; F
CN(C)Cc1ccc(O)c(C(=O)O)c1; T

### Prompt Please tell me: is the compound "CC(C)(Sc1cc(C(C)(C)C)c(O)c(C(C)(C)C)c1)Sc1cc(C(C)(C)C)c(OC(=O)CCCC(=O)O)c(C(C)(C)C)c1" at or over 70% in terms of growth?
### Response T

### Prompt Quick check, growth >= 70%? "CC(C)C1=NOC(=O)C1=Cc1cn(-c2ccccc2)nc1-c1ccc(F)cc1"
### Response T

### Prompt Identify whether the reported growth of the following compound is 70% or greater: "CCc1ccccc1-n1c(-c2ccc(OC)cc2)cc(-c2ccc(OC)cc2)c(C#N)c1=O"
### Response F
